# ASSAY DETAILS: NCI Yeast Anticancer Drug Screen. Data for the cln2 rad14 strain (AID 165);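 further: 0% = growth equal to vehicle treated cultures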
# SETTINGS: S. cerevisiae cln2 rad14 strain, at 50.0 µM, stronger effect = higher value
The panel holds about 79,000 compounds, 15% with a hit somewhere; the sample as a whole holds those more often.
METRIC: growth inhibition (%)
Just the number please, in %, no unit attached.

Query: For the compound `Cc1cccc(-c2cc(=O)c3c(C)ccnc3[nH]2)c1` , report growth inhibition.
Result: -4.5

Query: For the compound `COC(=O)c1nc(N)[nH]c(=O)c1CCCCCc1c(C(=O)OC)nc(N)[nH]c1=O` , report growth inhibition.
Result: 6.5

Query: For the compound `Cc1cc(C)c(NC(=O)Nc2cccc(F)c2)c(C)c1` , report growth inhibition.
Result: 19.2

Query: For the compound CC1C(c2ccccc2)NC(c2ccccc2)C(C)C1(O)c1ccccc1 (stereo not given) , report growth inhibition.
Result: -23.1

Query: For the compound `Cc1cc(N=Cc2c(CO)cnc(C)c2O)c(N=Cc2c(CO)cnc(C)c2O)cc1C.[Zn]` , report growth inhibition.
Result: -3.15

Query: For the compound `COc1ccccc1/C=N\NC(=O)c1ccccc1O` , report growth inhibition.
Result: 21.5

Query: For the compound O=C(CC(C(=O)c1ccsc1)c1cccs1)c1ccsc1 (stereo not given) , report growth inhibition.
Result: 24.5

Query: For the compound `CCCCNC(=O)C(c1ccccc1)c1ccccc1` , report growth inhibition.
Result: -12.3

Query: For the compound CC(C)CCCC(C)C1CCC2C3CCC4CC(N5CCCCC5)CCC4(C)C3CCC12C (stereo not given) , report growth inhibition.
Result: -20.8

Query: For the compound `C=CCN1C(C)(C)NC(=S)C1(C)C` , report growth inhibition.
Result: -5

Query: For the compound `COc1ccc(Br)cc1/C=N/N=C/c1cc(Br)ccc1OC` , report growth inhibition.
Result: 20.9

Query: For the compound `CC(=O)Nc1cc2[nH]c(=O)c3cc(Cl)ccc3c2cc1[N+](=O)[O-]` , report growth inhibition.
Result: 27.1

Query: For the compound `O=[N+]([O-])c1cccc(N=C(c2ccccc2)N(O)c2ccccc2)c1` , report growth inhibition.
Result: 31.9

Query: For the compound `NNc1nnc(NN)c2ccccc12` , report growth inhibition.
Result: 3.65

Query: For the compound `O=C(Cc1ccccc1)Nc1ccc([N+](=O)[O-])cc1Cl` , report growth inhibition.
Result: 2.1

Query: For the compound `Cc1c2ccccc2nc(CS(=O)(=O)c2ccccc2)[n+]1[O-]` , report growth inhibition.
Result: -60.5

Query: For the compound `CN(C)C=Nc1ccc2[nH]c3ccccc3c2c1` , report growth inhibition.
Result: 14.3

Query: For the compound CC1(C)CCC2(C)CC=C3C(C)(CCC4C3(C)CCC3C(C)(C)C(O)CCC43C)C2C1 (stereo not given) , report growth inhibition.
Result: -10.3

Query: For the compound `CC(=O)N1C(=O)NC(=O)C1(C)C` , report growth inhibition.
Result: -18.5

Query: For the compound `CCCCCCCCCCCCSC(=O)CCC(=O)O` , report growth inhibition.
Result: -29.9

Query: For the compound CNC(=O)OCCC(OC(=O)NC)C1CCC2C3CCC4CC(OC(=O)c5ccccc5)CCC4(C)C3CCC12C (stereo not given) , report growth inhibition.
Result: 23.3

Query: For the compound `O=C(NO)c1cc(O)c(O)c(O)c1` , report growth inhibition.
Result: -11.6

Query: For the compound `CN(C)c1ccc(/C=N/NS(=O)(=O)c2ccc(N)cc2)cc1` , report growth inhibition.
Result: -3.45

Query: For the compound COc1cc(C2c3cc4c(cc3[C@@H](OC3OC5CO[C@@H](C)OC5C(O)C3O)[C@H]3COC(=O)C23)OCO4)cc(OC)c1OC (stereo not given in full) , report growth inhibition.
Result: 12.4

Query: For the compound `O=C(O)COc1cc(Cl)cc(F)c1Cl` , report growth inhibition.
Result: -33.2

Query: For the compound `O=c1/c(=C/c2ccc3c(c2)OCO3)sc2nnc(-c3ccco3)n12` , report growth inhibition.
Result: 20.6

Query: For the compound `CCOc1c(Cl)c(Cl)c(Cl)c(Cl)c1Cl` , report growth inhibition.
Result: 9.3

Query: For the compound `O=C(/C=C/c1ccccc1)c1ccc(Oc2ccccc2)cc1` , report growth inhibition.
Result: -39.5

Query: For the compound `O=C1COc2cccnc2N1` , report growth inhibition.
Result: 2.2

Query: For the compound CC(=O)OCC1OC(OCCCc2ccccc2)C(OC(C)=O)C(OC(C)=O)C1OC(C)=O (stereo not given) , report growth inhibition.
Result: -47.9

Query: For the compound `[Cl][Pt+2][Cl].[NH-]c1cccc(C(F)(F)F)c1.[NH-]c1cccc(C(F)(F)F)c1` , report growth inhibition.
Result: 7.05

Query: For the compound `CCCCCCCCCCCCCCCCCCNC(=O)Nc1ccccc1` , report growth inhibition.
Result: -7.65

Query: For the compound COC(=O)CC(NC(=O)C(Cc1ccccc1)NC(=O)OCc1ccccc1)C(=O)O (stereo not given) , report growth inhibition.
Result: 11.7

Query: For the compound `N#Cc1cccc(NC(=O)c2ccc(C(=O)O)c(C(=O)c3ccc(C(=O)O)c(C(=O)Nc4cccc(C#N)c4)c3)c2)c1` , report growth inhibition.
Result: 8.35

Query: For the compound `CCN(CC)C(COC(=O)Nc1ccccc1)COC(=O)Nc1ccccc1` , report growth inhibition.
Result: -13.8

Query: For the compound `CCc1c(C)[nH]c(C2=NCCC2)c1C` , report growth inhibition.
Result: -1.6

Query: For the compound CCCCON1C[C@@H](O)C(O)[C@@H](O)C1 (stereo not given in full) , report growth inhibition.
Result: -13.2

Query: For the compound CCN(CC)CCCC(C)NCCCN (stereo not given) , report growth inhibition.
Result: -5.4

Query: For the compound `O=C(OCc1ccccc1)c1ccc(Cl)cc1` , report growth inhibition.
Result: 15.2

Query: For the compound `CCOC(=O)CC(CC(=O)OCC)(C(=O)OCC)C(=O)OCC` , report growth inhibition.
Result: -57.2

Query: For the compound `CCCCCCCCCCCCCCCC(=O)N(CCCC)CCCC` , report growth inhibition.
Result: 11.9

Query: For the compound `CCOc1ccc(C2=C/C(=C/c3cccs3)C(=O)O2)cc1` , report growth inhibition.
Result: -25.6

Query: For the compound `O=C(Cn1c(-c2ccccc2)cc2ccccc21)N1CCOCC1` , report growth inhibition.
Result: -18.1

Query: For the compound `CSc1n[n+]2c(s1)SCCC2` , report growth inhibition.
Result: 5.45

Query: For the compound `CNC(=O)c1nnn(Cc2ccc(OC)cc2)c1Cl` , report growth inhibition.
Result: -69

----------
# ASSAY DETAILS: NCI Yeast Anticancer Drug Screen. Data for the bub3 strain (AID 167)
# SETTINGS: S. cerevisiae bub3 mutant strain, at 50.0 µM, stronger effect = higher value
The panel holds about 79,000 compounds, 15% with a hit somewhere; the sample as a whole holds those more often.
Hi there, I'd appreciate the recorded growth inhibition for every entry that follows.
Just the number please, in %, no unit attached.

Query: For the molecule COC(O)C(=O)c1c2c(cc3c1CCC3)CCC2 (stereo not given) , report growth inhibition.
Result: 21.1

Query: For the molecule `Cc1cccc(N=C(Nc2cccc(C)n2)Nc2cccc(C)n2)n1` , report growth inhibition.
Result: 25.9

Query: For the molecule `O=C(O)C1CC[N-]CC1.O=C(O)C1CC[N-]CC1.[NH2-].[NH2-].[Pt+4]` , report growth inhibition.
Result: 2.6

Query: For the molecule `COC(=N)c1nnn(-c2ccccc2)n1` , report growth inhibition.
Result: 2.05

Query: For the molecule `COC(=O)CCCCCN1C(=O)c2cccc([N+](=O)[O-])c2C1=O` , report growth inhibition.
Result: 15.2

Query: For the molecule `O=C(c1cccs1)N(C(=S)N1CCN(c2ccccc2)CC1)c1ccccc1` , report growth inhibition.
Result: -30.4

Query: For the molecule `CCOC(=O)/C(=C\c1cc(OC)ccc1OC)P(=O)(OCC)OCC` , report growth inhibition.
Result: 7.6

Query: For the molecule `O=C(NC/C(Cl)=C/Cl)Nc1cccc2c1CCCC2` , report growth inhibition.
Result: 22

Query: For the molecule `N#C/C(=C(\O)C(=O)O)c1ccc(-c2cccc3ccccc23)cc1` , report growth inhibition.
Result: 16.7

Query: For the molecule CC/C(CC(C)CC)=N\O (stereo not given) , report growth inhibition.
Result: -4.55

Query: For the molecule CC1CCc2c(ccc3ccccc23)C1 (stereo not given) , report growth inhibition.
Result: -16.8

Query: For the molecule Cc1ccc(S(=O)(=O)n2cnc(CC(NC(=O)C3CCC(=O)N3C(=O)OCc3ccccc3)C(=O)N3CCCC3C(=O)NN)c2)cc1 (stereo not given) , report growth inhibition.
Result: -30.9

Query: For the molecule CC1CCCC(C)(C)/C1=N/O (stereo not given) , report growth inhibition.
Result: 20.8

Query: For the molecule `CCOC(=O)CCc1cnc[nH]1` , report growth inhibition.
Result: -4.55

Query: For the molecule CCCC(O)C(C)C(O)CC (stereo not given) , report growth inhibition.
Result: 1.4

Query: For the molecule `Cc1ccc(CCS(=O)(=O)N=[N+]=[N-])cc1` , report growth inhibition.
Result: -20

Query: For the molecule COC(=O)C(Cc1ccccc1)NP(=O)(O)OCC1OC(n2cc(I)c(=O)[nH]c2=O)CC1O (stereo not given) , report growth inhibition.
Result: -10.1

Query: For the molecule `O=C(Nn1c(-c2ccccc2)nc2ccccc2c1=O)c1cccc([N+](=O)[O-])c1` , report growth inhibition.
Result: 23.8

Query: For the molecule `CCN(CC)C(=O)c1ccc(O)c(OC)c1` , report growth inhibition.
Result: -7.3

Query: For the molecule `O=[N+]([O-])c1ccc(N=NC(=S)NNc2ccccc2)cc1` , report growth inhibition.
Result: 20.2

Query: For the molecule `CCCCCCC(C(=O)OCC)(C(=O)OCC)c1ccccc1` , report growth inhibition.
Result: 37.9

Query: For the molecule `Cc1ccc(C(=O)N2CCCCC2)cc1N=NN(C)C` , report growth inhibition.
Result: -17.6

Query: For the molecule O=C1c2ccccc2N(Cc2cccc(F)c2)C2=NCCCC12 (stereo not given) , report growth inhibition.
Result: 8.3

Query: For the molecule O=[N+]([O-])c1ccc(SN2CCCCC2CC2CCCCC2)c([N+](=O)[O-])c1 (stereo not given) , report growth inhibition.
Result: 1.3

Query: For the molecule `COc1ncnc2ccccc12` , report growth inhibition.
Result: -25.2

Query: For the molecule `O=C(NC(=S)Nc1ccc(S(=O)(=O)c2ccc(NC(=S)NC(=O)c3ccccc3)cc2)cc1)c1ccccc1` , report growth inhibition.
Result: -32.1

Query: For the molecule COC(=O)c1ccccc1N=CCC(C)CCCC(C)(C)O (stereo not given) , report growth inhibition.
Result: 0.1

Query: For the molecule `C[Si](C)(C)C#CCOC=C1CC1` , report growth inhibition.
Result: -11.7

Query: For the molecule CCC(O)(c1ccc(OC)cc1)C(O)(CC)c1ccc(OC)cc1 (stereo not given) , report growth inhibition.
Result: 5.85

Query: For the molecule `Ic1ccc(N=Cc2cccs2)cc1` , report growth inhibition.
Result: 10.8

Query: For the molecule CC(C(=O)OCc1ccccc1)(c1ccco1)N1C(=O)OC(c2ccccc2)C1c1ccccc1 (stereo not given) , report growth inhibition.
Result: -17.1

Query: For the molecule `Cc1cccc(C)c1NC(=O)OC(C)C` , report growth inhibition.
Result: 11.8

Query: For the molecule `Cc1ccc(S(=O)(=O)CCOC(=O)Nc2ccccc2)cc1` , report growth inhibition.
Result: -14.6

Query: For the molecule `Cc1ccc(-c2ccc(C)cc2)cc1` , report growth inhibition.
Result: -36.9

Query: For the molecule `CCOC(=O)C(C)=P(c1ccccc1)(c1ccccc1)c1ccccc1` , report growth inhibition.
Result: -0.7

Query: For the molecule `O=c1cc(Nc2ccccc2Cl)[nH]c(=O)[nH]1` , report growth inhibition.
Result: -27.4

Query: For the molecule `CSc1c(C#N)c(N)nc2c(N=Nc3ccc(Cl)cc3)c(N)nn12` , report growth inhibition.
Result: -6.5

Query: For the molecule `COc1ccccc1NC(=O)N1CCN(c2cccc(C)c2)CC1` , report growth inhibition.
Result: 37.4

Query: For the molecule `Nc1cccc(C(=O)Nc2ccc3c(O)cc(S(=O)(=O)O)cc3c2)c1` , report growth inhibition.
Result: -12.4

Query: For the molecule `O=C(c1ccccc1)C(N=Nc1ccccc1)(c1ccccc1)c1ccccc1` , report growth inhibition.
Result: -0.85

Query: For the molecule `O=C(O)/C=C\C(=O)Nc1ccc(N=Nc2ccccc2)cc1` , report growth inhibition.
Result: -18.8

Query: For the molecule `O=C(O)c1cc(=O)[nH]c(SCc2ccc(Cl)cc2Cl)n1` , report growth inhibition.
Result: 9.6

Query: For the molecule `Nc1ccn([C@@H]2C=C(CO)[C@@H](O)[C@H]2O)c(=O)n1` , report growth inhibition.
Result: -10.4

Query: For the molecule `O=CNCO` , report growth inhibition.
Result: 8.5

Query: For the molecule `CCCNC1=C(OC)C(=O)C(NCCC)=C(OC)C1=O` , report growth inhibition.
Result: 2
